Quick list: Kd per entry.
# Study Target: T1, human TREM2 expressed on cells (human, UniProt Q9NZC2 19-230)
# T1 construct: BW5147.G.1.4 cells stably expressing human TREM2 together with Dap12, or endogenous TREM2 of primary human myeloid cells; also called huT2 BW; hTREM2 expressing cell line
# T1 sequence: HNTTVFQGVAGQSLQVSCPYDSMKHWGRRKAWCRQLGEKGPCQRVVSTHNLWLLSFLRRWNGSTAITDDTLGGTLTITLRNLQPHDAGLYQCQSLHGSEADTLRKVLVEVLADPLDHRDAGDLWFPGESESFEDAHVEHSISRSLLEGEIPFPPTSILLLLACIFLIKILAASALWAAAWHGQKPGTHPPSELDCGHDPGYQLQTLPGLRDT
# Assay Protocol: FACS, hTREM2 BW cells
Response body: numeric value in nM, unit text excluded.

Study these solved cases before continuing.
>>> recorded_number("AL2p-37 (antibody, IgG1, V domains shown, Fab and IgG formats under one id; also called AL2p-37 huIgG1) VH: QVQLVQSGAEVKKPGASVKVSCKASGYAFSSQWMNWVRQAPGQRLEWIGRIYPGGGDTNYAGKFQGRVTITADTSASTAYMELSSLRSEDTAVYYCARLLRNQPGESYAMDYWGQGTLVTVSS VL: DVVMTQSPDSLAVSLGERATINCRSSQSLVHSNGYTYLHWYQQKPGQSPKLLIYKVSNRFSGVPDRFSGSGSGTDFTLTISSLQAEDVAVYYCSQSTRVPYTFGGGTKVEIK")
2.9
>>> recorded_number("AL2p-29 (antibody, V domains shown, Fab and IgG formats under one id) VH: QVQLVQSGAEVKKPGSSVKVSCKASGYAFSSQWMNWVRQAPGQGLEWMGRIYPGDGDTNYAQKFQGRVTITADESTSTAYMELSSLRSEDTAVYYCARLLRNQPGESYAMDYWGQGTLVTVSS VL: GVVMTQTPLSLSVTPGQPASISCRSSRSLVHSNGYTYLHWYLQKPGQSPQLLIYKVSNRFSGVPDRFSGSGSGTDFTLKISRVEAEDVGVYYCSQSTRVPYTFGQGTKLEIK")
1.3
>>> recorded_number("AL2p-49 (antibody, V domains shown, Fab and IgG formats under one id) VH: EVQLVQSGAEVKKPGSSVKVSCKASGYAFSSDWMNWVRQAPGQGLEWMGRIYPGEGDTNYARKFHGRVTITADESTSTAYMELSSLRSEDTAVYYCARLLRNKPGESYAMDYWGQGTLVTVSS VL: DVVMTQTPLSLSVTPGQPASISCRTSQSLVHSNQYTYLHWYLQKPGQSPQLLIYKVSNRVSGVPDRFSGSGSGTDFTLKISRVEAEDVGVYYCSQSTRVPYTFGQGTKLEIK")
1.15
>>> recorded_number("AL2p-10 (antibody, V domains shown, Fab and IgG formats under one id) VH: QVQLVQSGAEVKKPGSSVKVSCKASGYAFSSDWMNWVRQAPGQGLEWMGRIYPGDGDTNYAQKFQGRVTITADESTSTAYMELSSLRSEDTAVYYCARLLRNQPGESYAMDYWGQGTLVTVSS VL: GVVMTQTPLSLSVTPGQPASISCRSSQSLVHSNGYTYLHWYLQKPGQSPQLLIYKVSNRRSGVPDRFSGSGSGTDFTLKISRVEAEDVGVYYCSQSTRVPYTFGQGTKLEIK")
3.1

Task: Any idea what its Kd is? The binder is AL2p-48 (antibody, V domains shown, Fab and IgG formats under one id) VH: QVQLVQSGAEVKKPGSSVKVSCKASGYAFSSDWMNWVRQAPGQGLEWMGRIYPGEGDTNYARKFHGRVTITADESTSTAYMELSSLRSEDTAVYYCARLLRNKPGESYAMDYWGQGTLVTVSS VL: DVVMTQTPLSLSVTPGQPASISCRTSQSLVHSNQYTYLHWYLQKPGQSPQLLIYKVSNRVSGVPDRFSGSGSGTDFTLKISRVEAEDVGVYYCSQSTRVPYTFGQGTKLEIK
Output: 1.4

Task: And then AL2p-27 (antibody, V domains shown, Fab and IgG formats under one id) VH: QVQLVQSGAEVKKPGSSVKVSCKASGYAFSSHWMNWVRQAPGQGLEWMGRIYPGQGDTNYAQKFQGRVTITADESTSTAYMELSSLRSEDTAVYYCARLLRNQPGESYAMDYWGQGTLVTVSS VL: GVVMTQTPLSLSVTPGQPASISCRSSRSLVHSNGYTYLHWYLQKPGQSPQLLIYKVSNRVSGVPDRFSGSGSGTDFTLKISRVEAEDVGVYYCSQSTRVPYTFGQGTKLEIK , what is it?
Output: 1.5

Task: And then AL2p-18 (antibody, V domains shown, Fab and IgG formats under one id) VH: QVQLVQSGAEVKKPGSSVKVSCKASGYAFSSHWMNWVRQAPGQGLEWMGRIYPGDGDTNYAQKWQGRVTITADESTSTAYMELSSLRSEDTAVYYCARLLRNQPGSSYAMDYWGQGTLVTVSS VL: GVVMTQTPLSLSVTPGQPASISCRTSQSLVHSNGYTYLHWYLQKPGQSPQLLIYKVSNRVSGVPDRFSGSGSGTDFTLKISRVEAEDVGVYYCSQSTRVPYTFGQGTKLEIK , what is it?
Output: 1.3

Task: And then AL2p-39 (antibody, V domains shown, Fab and IgG formats under one id) VH: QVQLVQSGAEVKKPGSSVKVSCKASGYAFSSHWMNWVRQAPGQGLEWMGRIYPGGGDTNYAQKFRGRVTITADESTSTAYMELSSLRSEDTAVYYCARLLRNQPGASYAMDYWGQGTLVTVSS VL: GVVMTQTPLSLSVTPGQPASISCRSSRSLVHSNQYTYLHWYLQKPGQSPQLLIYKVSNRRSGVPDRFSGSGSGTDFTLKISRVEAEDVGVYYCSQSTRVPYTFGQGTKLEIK , what is it?
Output: 1.53

Task: And then AL2p-20 (antibody, V domains shown, Fab and IgG formats under one id) VH: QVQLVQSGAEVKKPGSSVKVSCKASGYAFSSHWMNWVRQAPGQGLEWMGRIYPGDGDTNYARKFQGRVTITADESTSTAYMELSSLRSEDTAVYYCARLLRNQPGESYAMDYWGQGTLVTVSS VL: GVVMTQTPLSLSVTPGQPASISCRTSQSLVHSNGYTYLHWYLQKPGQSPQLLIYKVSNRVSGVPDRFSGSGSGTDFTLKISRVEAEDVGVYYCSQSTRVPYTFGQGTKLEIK , what is it?
Output: 1.2
